Assay: in vitro
Settings: human, uninfected SupT1 cells
Recorded endpoint: CC50 at 48 h

smiles_notation=C=C(C)c1ccc(NC(=O)COc2cccc3c2OC(C)(C)C3)nc1 recorded_endpoint="CC50 at 48 h" result="> 125 µM"
smiles_notation=COc1ccccc1OCC(=O)Nc1nc2c(C)cccc2s1 recorded_endpoint="CC50 at 48 h" result="> 100 µM"
smiles_notation=Cc1ccc(NC(=O)COc2cccc3c2OC(C)(C)C3)cn1 recorded_endpoint="CC50 at 48 h" result="> 100 µM"
smiles_notation=Cc1ccc(N(Cc2ccccn2)C(=O)COc2cccc3c2OC(C)(C)C3)nc1 recorded_endpoint="CC50 at 48 h" result="> 100 µM"
smiles_notation=CC1(C)Cc2cccc(OCC(=O)Nc3nc(C(=O)NCc4ccco4)cs3)c2O1 recorded_endpoint="CC50 at 48 h" result="> 100 µM"
smiles_notation=Cc1nc(N(Cc2ccccc2)C(=O)COc2cccc3c2OC(C)(C)C3)sc1C recorded_endpoint="CC50 at 48 h" result="> 100 µM"
smiles_notation=CC1(C)Cc2cccc(OCC(=O)Nc3ccc(C4CC4)cn3)c2O1 recorded_endpoint="CC50 at 48 h" result="> 125 µM"
smiles_notation=CN(C(=O)COc1ccccc1OC(F)(F)F)c1nc2c(s1)CCCC2 recorded_endpoint="CC50 at 48 h" result="> 125 µM"

Now look at this entry.
Quick note, CC50 at 48 h for CC1(C)Cc2cccc(OCC(=O)Nc3nc4c(Cl)cccc4s3)c2O1 landed at > 90 µM
